Entries and their measured MIC follow.
tested on: Klebsiella pneumoniae; test: Antibacterial activity against Klebsiella pneumoniae […] after 24 hrs by agar streak dilution method; type: functional
result.type: MIC (µg/mL)

compound | quantity.unit | readout.number
CCN1CCN(CC2SC(c3ccccc3Br)N(c3ccc(Nc4nc(Oc5cc(=O)n(C)c6ccccc56)nc(N(C)C)n4)cc3)C2=O)CC1 (centres undefined) | µg/mL | 100
CCN1CCN(CC2SC(c3ccc(OC)c(OC)c3)N(c3ccc(Nc4nc(Oc5cc(=O)n(C)c6ccccc56)nc(N(C)C)n4)cc3)C2=O)CC1 (centres undefined) | µg/mL | 50
CCN1CCN(CC2SC(c3ccc(OC)cc3)N(c3ccc(Nc4nc(Oc5cc(=O)n(C)c6ccccc56)nc(N(C)C)n4)cc3)C2=O)CC1 (centres undefined) | µg/mL | 25
CCN1CCN(CC2SC(c3ccccc3[N+](=O)[O-])N(c3ccc(Nc4nc(Oc5cc(=O)n(C)c6ccccc56)nc(N(C)C)n4)cc3)C2=O)CC1 (centres undefined) | µg/mL | 100
